The origin of these recorded values is the supplement of paper PMC7380943.

# Test system: CLZ3 (HCA2 human fibroblast dual HR-NHEJ reporter);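 further: compound given one day ahead of doxycycline, which switches on I-SceI endonuclease to cut the chromosomally integrated reporter and create DSBs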
# protocol details: NHEJ repair efficiency (GFP+ cells) relative to control (log10 fold); higher = more non-homologous end joining
# cond: 5 µM; doxycycline 0.5 ug/mL
measure: NHEJ repair efficiency (log10)
One number for each entry.

In the examples that follow, each entry is paired with its recorded NHEJ repair efficiency (log10).
{"compound": "CC1(C)CC[C@]2(C(=O)O)[C@H](O)C[C@]3(C)C(=CC[C@@H]4[C@@]5(C)CC[C@H](O)C(C)(C)[C@@H]5CC[C@]43C)[C@H]2C1 [Echinocystic acid]", "NHEJ repair efficiency (log10)": -0.117}
{"compound": "C[C@@H]1O[C@@H](Oc2c(-c3cc(O)c(O)c(O)c3)oc3cc(O)cc(O)c3c2=O)[C@H](O)[C@H](O)[C@H]1O [Myricetrin]", "NHEJ repair efficiency (log10)": 0.0716}
{"compound": "COC(=O)[C@H](c1ccccc1Cl)N1CCc2sccc2C1 [Clopidogrel bisulfate]", "NHEJ repair efficiency (log10)": 0.138}
{"compound": "COC(=O)c1ccc(O)cc1 [Methylparaben]", "NHEJ repair efficiency (log10)": 0.0529}

For each listed entry, give its NHEJ repair efficiency (log10).
1. O=c1cc(-c2ccc(O)cc2)oc2c([C@@H]3O[C@H](CO)[C@@H](O)[C@H](O)[C@H]3O)c(O)c([C@@H]3OC[C@H](O)[C@H](O)[C@H]3O)c(O)c12 [Isoschaftoside]
2. CC(C)(O)CCc1c(O)cc(O)c2c(=O)c(O)c(-c3ccc(O)cc3)oc12 [Noricaritin]
3. O=C(O)/C=C/c1ccc(O)c(O)c1 [Caffeic Acid]
4. O=c1cc(-c2ccccc2)oc2cc(O)c(O)c(O)c12 [Baicalein]
5. COc1cc2c(cc1OC)[C@@H]1Cc3ccc(OC)c(OC)c3CN1CC2 [Tetrahydropalmatine]

// result
-0.0804
-0.112
0.0711
0.203
-0.0787

For each listed entry, give its NHEJ repair efficiency (log10).
1. COc1cc2c(cc1O)CC[n+]1cc3c(OC)c(OC)ccc3cc1-2 [Jateorrhizine]
2. Nc1ncnc2c1ncn2[C@@H]1O[C@H](CO)[C@@H](O)[C@H]1O [Adenosine]
3. C[C@@H]1O[C@@H](O[C@H]2C(=O)c3c(O)cc(O)cc3O[C@@H]2c2ccc(O)c(O)c2)[C@H](O)[C@H](O)[C@H]1O [Astilbin]

// result
[-0.216, -0.0785, 0.0148]

For each listed entry, give its NHEJ repair efficiency (log10).
1. COc1cccc(OC)c1C(=O)OCc1cc(O)ccc1O[C@@H]1O[C@H](CO)[C@@H](O)[C@H](O)[C@H]1O [Curculigoside]
2. COc1ccc(-c2cc(=O)c3c(O)c(OC)c(O)cc3o2)cc1 [Pectolinarigenin]
3. O=Cc1ccc(CO)o1 [5-Hydroxymethyl-2-furaldehyde (5-HMF)]
4. Cn1c(=O)c2c(ncn2CC(O)CO)n(C)c1=O (stereo not drawn) [Diprophylline]
5. COc1ccc(-c2oc3c(CC=C(C)C)c(O[C@@H]4O[C@H](CO)[C@@H](O)[C@H](O)[C@H]4O)cc(O)c3c(=O)c2O[C@@H]2O[C@@H](C)[C@H](O)[C@@H](O)[C@H]2O[C@@H]2O[C@@H](C)[C@H](O)[C@@H](O)[C@H]2O)cc1 [Epimedin C]
6. CC(C)=CCc1cc2c(cc1O)oc(=O)c1c3ccc(O)cc3oc21 [Psoralidin]
7. C=C(C(=O)O)[C@@H]1CC[C@@H](C)[C@@H]2CCC(C)=C[C@@H]21 [Artemisinic acid]

// result
0.0105
-0.0149
-0.174
0.137
-0.0776
0.31
0.0135
